tested system: purified γ-secretase (Homo sapiens, UniProt P49768+Q92542)
Construct: made in house
assay protocol: cell-free in vitro C100-Flag γ-secretase assay with purified enzyme
Assay type: biochemical
condition context: purified γ-secretase, AICD-Flag densitometry; read-out: IC50 in the in vitro γ-secretase activity assay (C100-Flag processing)
value type: IC50

Req: Tell me measured IC50 for CC(C)C[C@H]1C(=O)N2CCC[C@H]2[C@]2(O)O[C@](NC(=O)[C@@H]3C=C4c5cccc6[nH]c(Br)c(c56)C[C@H]4N(C)C3)(C(C)C)C(=O)N12 please.
Resp: ~50 µM

Req: Tell me measured IC50 for CC(C)C[C@H]1C(=O)N2CCC[C@H]2[C@]2(O)O[C@](NC(=O)OCc3ccccc3)(C(C)C)C(=O)N12 please.
Resp: ~100 µM

----------
tested system: purified γ-secretase (Homo sapiens, UniProt P49768+Q92542)
Construct: made in house
assay protocol: cell-free in vitro C100-Flag γ-secretase assay with purified enzyme
Type: biochemical
condition context: 200 µM, compared with DHEC, estimated by densitometry
Counter-ions that a name gives are not always drawn. Where a SMILES comes first, the peptide text is derived from it. The star is where a group is joined. Pyrrolidide = C1CCN(*)C1
value type: The potency of compound (in vitro C100 γ-secretase assay)

Previously resolved entries follow.
CN1C[C@H](C(=O)N[C@]2(C)O[C@@]3(O)[C@@H]4CCCN4C(=O)[C@H](Cc4ccccc4)N3C2=O)C=C2c3cccc4[nH]cc(c34)C[C@H]21 [Ergotamine, ergotamine tartrate]; -
CC(=O)N[C@H](C(=O)N[C@@H](Cc1ccccc1)C(=O)N1CCCC1)C(C)C [AMBE] (Ac-Val-Phe-Pyrrolidide); -
CC(C)C[C@H]1C(=O)N2CCC[C@H]2[C@]2(O)O[C@](NC(=O)[C@@H]3C=C4c5cccc6[nH]cc(c56)C[C@H]4N(C)C3)(C(C)C)C(=O)N12; +++
CCCN1C[C@H](CSC)C[C@@H]2c3cccc4[nH]cc(c34)C[C@H]21 [Pergolide, pergolide mesylate salt]; -

Attention now turns to another entry.
Req: Tell me measured The potency of compound (in vitro C100 γ-secretase assay) for CCC(C)[C@H]1C(=O)N2CCC[C@H]2[C@]2(O)O[C@](NC(=O)[C@@H]3C[C@@H]4c5cccc6[nH]cc(c56)C[C@H]4N(C)C3)(C(C)C)C(=O)N12 (stereo partly drawn) [β-Dihydro-ergocryptine, β-Dihydroergocryptine] please.
Resp: +

----------
tested system: γ-secretase (Homo sapiens, UniProt P49768+Q92542)
assay protocol: surface plasmon resonance, γ-secretase immobilized
condition context: SPR, Biacore T100, NTA chip; read-out: equilibrium dissociation constant (Kd), γ-secretase
value type: Kd (nM)
Answer with a number only, understood to be in nM.

Req: Tell me measured Kd for CC(C)[C@@]1(NC(=O)[C@@H]2C[C@@H]3c4cccc5[nH]cc(c45)C[C@H]3N(C)C2)O[C@@]2(O)[C@@H]3CCCN3C(=O)[C@H](Cc3ccccc3)N2C1=O please.
Resp: 25.7

----------
tested system: γ-secretase (Homo sapiens, UniProt P49768+Q92542)
assay protocol: cell-based luciferase reporter assay for γ-secretase inhibition (T100 cells)
Set-up: endogenous in cells; host or cells: T-REx HeLa cells (T100) stably transfected with the substrate C99-Gal4-VP16 and a luciferase reporter
condition context: 24 h, read-out: IC50, inhibition of APP-C99 processing
pIC50: −log10 of the molar value.
value type: pIC50

Req: Tell me measured pIC50 for C[C@H](NC(=O)Cc1cc(F)cc(F)c1)C(=O)N[C@H](C(=O)OC(C)(C)C)c1ccccc1 please.
Resp: ~6.70

----------
tested system: purified γ-secretase (Homo sapiens, UniProt P49768+Q92542)
Construct: made in house
assay protocol: cell-free in vitro C100-Flag γ-secretase assay with purified enzyme
Assay type: biochemical
condition context: 200 μM, purified γ-secretase
Structures can show the parent of a compound that is named as a salt.
value type: inhibition of γ-secretase activity (C100-Flag cleavage)

Previously resolved entries follow.
CC[C@@H](CO)NC(=O)[C@@H]1C=C2c3cccc4[nH]cc(c34)C[C@H]2N(C)C1; did not inhibit
CN1C[C@H](C(=O)N[C@]2(C)O[C@@]3(O)[C@@H]4CCCN4C(=O)[C@H](Cc4ccccc4)N3C2=O)C=C2c3cccc4[nH]cc(c34)C[C@H]21 [Ergotamine, ergotamine tartrate]; did not inhibit
CC(C)C[C@H]1C(=O)N2CCC[C@H]2[C@]2(O)O[C@](NC(=O)[C@@H]3C=C4c5cccc6[nH]cc(c56)C[C@H]4N(C)C3)(C(C)C)C(=O)N12; inhibited
CN1C[C@H](CNC(=O)OCc2ccccc2)C[C@@H]2c3cccc4c3c(cn4C)C[C@H]21; did not inhibit

Req: State inhibition of γ-secretase activity (C100-Flag cleavage) (purified γ-secretase (Homo sapiens, UniProt P49768+Q92542)) of CCC(C)[C@H]1C(=O)N2CCC[C@H]2[C@]2(O)O[C@](NC(=O)[C@@H]3C[C@@H]4c5cccc6[nH]cc(c56)C[C@H]4N(C)C3)(C(C)C)C(=O)N12 (stereo partly drawn) [β-Dihydro-ergocryptine, β-Dihydroergocryptine] .
Resp: inhibited

Req: State inhibition of γ-secretase activity (C100-Flag cleavage) (purified γ-secretase (Homo sapiens, UniProt P49768+Q92542)) of CN1C[C@H](C(=O)N[C@]2(C)O[C@@]3(O)[C@@H]4CCCN4C(=O)[C@H](Cc4ccccc4)N3C2=O)C[C@@H]2c3cccc4[nH]cc(c34)C[C@H]21 [Dihydro-ergotamine (DHE), dihydroergotamine methanesulfonate salt] .
Resp: did not inhibit

Req: State inhibition of γ-secretase activity (C100-Flag cleavage) (purified γ-secretase (Homo sapiens, UniProt P49768+Q92542)) of CCCN1C[C@H](CSC)C[C@@H]2c3cccc4[nH]cc(c34)C[C@H]21 [Pergolide, pergolide mesylate salt] .
Resp: did not inhibit
